B1: minF1; a variant is named by its letters at N, in order (parent)
chain: GAGACCGCAACTGAAAAGTTGTTNNNNAANNNNNGGNTNAATTTCTGCACGTAGAAGCAAAAGGC

variants of: B1; assay: fraction ligated after 30 min (ligated reads / total reads); higher = more ligase activity; settings: with F1*subA RNA substrate (template-directed ligation), 42 °C
I'd appreciate it if you could supply fraction ligated values for the items below.
API note: the answer field is a bare number with no unit suffix.

(Q) Name the reported fraction ligated value associated with the variant GAGACCGCAACTGAAAAGTTGTTTCAGAAATGGATGGTTAATTTCTGCACGTAGAAGCAAAAGGC
(A) 0.0137

(Q) Next variant up: GAGACCGCAACTGAAAAGTTGTTATCAGATGGATGGGTTAATTTCTGCACGTAGAAGCAAAAGGC
(A) 0.00453

(Q) Next variant up: GAGACCGCAACTGAAAAGTTGTTATAGAAATGGATGGGTTATTTCTGCACGTAGAAGCAAAAGGC
(A) 0.000429

(Q) Next variant up: GAGACCGCAACTGAAAAGTTGTTATGAAATGATGGGTTGAATTTCTGCACGTAGAAGCAAAAGGC
(A) 0.00356

(Q) Next variant up: GAGACCGCAACTGAAAAGTTGTTACGAAATGGATGGTTGAATTTCTGCACGTAGAAGCAAAAGGC
(A) 0.0663

(Q) Next variant up: GAGACCGCAACTGAAAAGTTGTTATGAAATGGATGGGTTGATTTCTGCACGTAGAAGCAAAAGGC
(A) 0.0235

(Q) Next variant up: GAGACCGCAACTGAAAAGTTGTTATGAAAGGATGGGTTGAATTTCTGCACGTAGAAGCAAAAGGC
(A) 0.00387

(Q) Next variant up: GAGACCGCAACTGAAAAGTTGTACGAAATGGATGGGTTGAATTTCTGCACGTAGAAGCAAAAGGC
(A) 0.00782

(Q) Next variant up: GAGACCGCAACTGAAAAGTTGTATCAGAATGGATGGTTGAATTTCTGCACGTAGAAGCAAAAGGC
(A) 0.0201

(Q) Next variant up: GAGACCGCAACTGAAAAGTTGTTATCGAAATGATGGGTTGATTTCTGCACGTAGAAGCAAAAGGC
(A) 0.0304

(Q) Next variant up: GAGACCGCAACTGAAAAGTTGTTATAGAAATGGTGGGTTAATTTCTGCACGTAGAAGCAAAAGGC
(A) 0.00303

(Q) Next variant up: GAGACCGCAACTGAAAAGTTGTTATCAGAAATGTGGGTTAATTTCTGCACGTAGAAGCAAAAGGC
(A) 0.00203

(Q) Next variant up: GAGACCGCAACTGAAAAGTTGTTATCGAATGGATGGGTTGATTTCTGCACGTAGAAGCAAAAGGC
(A) 0.0919

(Q) Next variant up: GAGACCGCAACTGAAAAGTTGTTATCGAAATGGTGGTTGAATTTCTGCACGTAGAAGCAAAAGGC
(A) 0.00328

(Q) Next variant up: GAGACCGCAACTGAAAAGTTGTTTCAAAATGGATGGGTTAATTTCTGCACGTAGAAGCAAAAGGC
(A) 0.00761

(Q) Next variant up: GAGACCGCAACTGAAAAGTTGTTATCAGAAATGTGGTTGAATTTCTGCACGTAGAAGCAAAAGGC
(A) 0.00332

(Q) Next variant up: GAGACCGCAACTGAAAAGTTGTTTCAGAAATGGGGGTTGAATTTCTGCACGTAGAAGCAAAAGGC
(A) 0.00281

(Q) Next variant up: GAGACCGCAACTGAAAAGTTGTATCAGAAATGGATGGTTAATTTCTGCACGTAGAAGCAAAAGGC
(A) 0.0188

(Q) Next variant up: GAGACCGCAACTGAAAAGTTGTATCAGAAATGGAGGGTTGATTTCTGCACGTAGAAGCAAAAGGC
(A) 0.0153

(Q) Next variant up: GAGACCGCAACTGAAAAGTTGTATAGAAATGATGGGTTGAATTTCTGCACGTAGAAGCAAAAGGC
(A) 0.00371

(Q) Next variant up: GAGACCGCAACTGAAAAGTTGTTTCAGAAATGGTGGGTTGATTTCTGCACGTAGAAGCAAAAGGC
(A) 0.00521

(Q) Next variant up: GAGACCGCAACTGAAAAGTTGTTATAGAAATATGGGTTGAATTTCTGCACGTAGAAGCAAAAGGC
(A) 0.00482

(Q) Next variant up: GAGACCGCAACTGAAAAGTTGTTATCAAATGGATGGTTGAATTTCTGCACGTAGAAGCAAAAGGC
(A) 0.00725

(Q) Next variant up: GAGACCGCAACTGAAAAGTTGTATAGAAATGGATGGGTTGATTTCTGCACGTAGAAGCAAAAGGC
(A) 0.00768

(Q) Next variant up: GAGACCGCAACTGAAAAGTTGTTATCAAAATGGAGGGTTGATTTCTGCACGTAGAAGCAAAAGGC
(A) 0.00544

(Q) Next variant up: GAGACCGCAACTGAAAAGTTGTACAGAAATGATGGGTTGAATTTCTGCACGTAGAAGCAAAAGGC
(A) 0.00284

(Q) Next variant up: GAGACCGCAACTGAAAAGTTGTATCAGAAAGGATGGGTTGATTTCTGCACGTAGAAGCAAAAGGC
(A) 0.00415

(Q) Next variant up: GAGACCGCAACTGAAAAGTTGTTATCGAAAGGAGGGTTGAATTTCTGCACGTAGAAGCAAAAGGC
(A) 0.00378

(Q) Next variant up: GAGACCGCAACTGAAAAGTTGTTATAAAATGGAGGGTTGAATTTCTGCACGTAGAAGCAAAAGGC
(A) 0.00187

(Q) Next variant up: GAGACCGCAACTGAAAAGTTGTTATCGATGGATGGGTTGAATTTCTGCACGTAGAAGCAAAAGGC
(A) 0.045

(Q) Next variant up: GAGACCGCAACTGAAAAGTTGTTTCAGAAAGGATGGGTTGATTTCTGCACGTAGAAGCAAAAGGC
(A) 0.00564

(Q) Next variant up: GAGACCGCAACTGAAAAGTTGTTATCAGAAAGATGGGTTAATTTCTGCACGTAGAAGCAAAAGGC
(A) 0.00546

(Q) Next variant up: GAGACCGCAACTGAAAAGTTGTATCAAAATGGATGGGTTAATTTCTGCACGTAGAAGCAAAAGGC
(A) 0.00522

(Q) Next variant up: GAGACCGCAACTGAAAAGTTGTTACAGAAAGGATGGGTTGATTTCTGCACGTAGAAGCAAAAGGC
(A) 0.00295

(Q) Next variant up: GAGACCGCAACTGAAAAGTTGTATCGAAATGGTGGGTTGAATTTCTGCACGTAGAAGCAAAAGGC
(A) 0.00501

(Q) Next variant up: GAGACCGCAACTGAAAAGTTGTTACAGAAAGGATGGTTGAATTTCTGCACGTAGAAGCAAAAGGC
(A) 0.0039

(Q) Next variant up: GAGACCGCAACTGAAAAGTTGTTTCGAAATGATGGGTTGAATTTCTGCACGTAGAAGCAAAAGGC
(A) 0.00384

(Q) Next variant up: GAGACCGCAACTGAAAAGTTGTTACGAAAGGATGGGTTGAATTTCTGCACGTAGAAGCAAAAGGC
(A) 0.00409
